test-name: log P by HPLC on a reversed-phase column (C 18), EEC Directive 79/831 Annex V.A8
Format: physicochemical
cond: reversed-phase HPLC column (C 18); acidic range, pH 2.7, 0.1% aqueous formic acid/acetonitrile; 55° C.; read-out: LOGP_HCOOH (log P (HCOOH))
quantity: chromatographic logP
Answer with a bare number; do not write a unit.

>  <mol-smiles>
CCS(=O)(=O)c1ccc(-n2ncc3ccc(Cl)cc32)nc1-c1nc2cc(C(F)(F)F)ncc2n1C

>  <observed>
4.01

$$$$

Which measured chromatographic logP value corresponds to CCS(=O)(=O)c1ccc(-c2cn(C)c3ccccc23)nc1-c1nc2cc(C(F)(F)F)ncc2n1C ? 3.55

----------
test-name: log P by HPLC on a reversed-phase column (C 18), EEC Directive 79/831 Annex V.A8
Format: physicochemical
cond: pH 2.7
Here, each record is paired with measured LOGP_HCOOH (log P (HCOOH)) data.
Answer with a bare number; do not write a unit.

Example cases with answers are listed next.
>  <compound>
CCS(=O)(=O)c1ccc(-n2ccc3nccc(Cl)c32)nc1-c1nc2cc(C(F)(F)F)ncc2n1C [Example I-19]

>  <observed>
2.51

$$$$
>  <compound>
CCS(=O)(=O)c1ccc(-n2ccc3cc(Cl)cnc32)nc1-c1nc2cc(C(F)(F)F)ncc2n1C [Example I-27]

>  <observed>
4.41

$$$$

Which measured LOGP_HCOOH (log P (HCOOH)) value corresponds to CCS(=O)(=O)c1ccc(N2Cc3ccc(Cl)cc3C2=O)nc1-c1nc2cc(C(F)(F)F)ncc2n1C [Example I-34] ? 3.83

And CCS(=O)(=O)c1ccc(-n2ccc3ncc(Cl)cc32)nc1-c1nc2cc(C(F)(F)F)ncc2n1C [Example I-28] ? 3.13

And CCS(=O)(=O)c1ccc(-c2ccc3cn(C)nc3c2)nc1-c1nc2cc(C(F)(F)F)ncc2n1C [Example I-14] ? 2.71

And CCS(=O)(=O)c1ccc(-n2cnc3ccccc32)nc1-c1nc2cc(C(F)(F)F)ncc2n1C [Example I-24] ? 2.66

----------
Test system: caterpillars of the armyworm (Spodoptera frugiperda)
test-name: Spodoptera frugiperda - spray test
Assay type: in vivo
cond: application rate 100 g/ha; maize leaf discs; after 7 days
Here, each record is paired with measured efficacy data.
Number in %, nothing else.

Example cases with answers are listed next.
>  <mol-smiles>
CCS(=O)(=O)c1ccc(-n2ccc3cccnc32)nc1-c1nc2cc(C(F)(F)F)ncc2n1C

>  <quantity>
efficacy

>  <observed>
100

$$$$
>  <mol-smiles>
CCS(=O)(=O)c1ccc(-n2cnc3ccccc32)nc1-c1nc2cc(C(F)(F)F)ncc2n1C

>  <quantity>
efficacy

>  <observed>
83

$$$$

Which measured efficacy value corresponds to CCS(=O)(=O)c1ccc(-n2nc3c(Cl)cc(C(F)(F)F)cn3c2=O)nc1-c1nc2cc(C(F)(F)F)ncc2n1C ? 83

And CCS(=O)(=O)c1ccc(N2Cc3cc(OC)ccc3C2=O)nc1-c1nc2cc(C(F)(F)F)ncc2n1C ? 100

And CCS(=O)(=O)c1ccc(-n2cc3cccc(Cl)c3n2)nc1-c1nc2cc(C(F)(F)F)ncc2n1C ? 100

And CCS(=O)(=O)c1ccc(N2Cc3ccccc3C2=O)nc1-c1nc2cc(C(F)(F)F)ncc2n1C ? 100

And CCS(=O)(=O)c1ccc(N2Cc3ccccc3C2)nc1-c1nc2cc(C(F)(F)F)ncc2n1C ? 100
